target_system: human OX1 receptor (Homo sapiens)
Sequence (O43613 1-425): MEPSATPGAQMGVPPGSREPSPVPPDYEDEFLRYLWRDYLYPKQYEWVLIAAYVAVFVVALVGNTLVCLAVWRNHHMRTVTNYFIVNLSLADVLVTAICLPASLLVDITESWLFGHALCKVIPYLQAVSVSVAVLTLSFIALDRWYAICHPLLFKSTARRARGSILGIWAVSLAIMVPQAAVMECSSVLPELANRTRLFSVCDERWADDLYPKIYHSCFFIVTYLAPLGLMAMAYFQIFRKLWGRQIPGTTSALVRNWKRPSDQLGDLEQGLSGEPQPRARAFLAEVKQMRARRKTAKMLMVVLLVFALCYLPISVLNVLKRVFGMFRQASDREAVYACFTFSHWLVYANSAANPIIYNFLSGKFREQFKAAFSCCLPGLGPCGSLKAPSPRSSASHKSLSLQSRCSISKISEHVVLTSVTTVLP
test_method_notes: [3H]-radioligand binding assay, OX1
Design: made in house; host or cells: SF21 insect cells (baculovirus; P0 virus made in SF9)
settings: [3H]-radioligand binding, human OX1 membranes; read-out: pKi average OX1 (converted)
quantity_kind: Ki (nM)

Consider the following illustrative entries.
{"compound": "COc1ncc(N2CCc3c(F)cccc3N(Cc3c(C)cc(Br)cc3F)C2=O)cc1S(C)(=O)=O [Example 17]", "quantity_kind": "Ki", "value": 0.794}
{"compound": "COc1ncc(N2CCc3c(F)cccc3N(Cc3c(F)cc(Cl)cc3F)C2=O)cc1C(C)(F)F [Example 9]", "quantity_kind": "Ki", "value": 0.794}
{"compound": "COCc1cc(F)c(CN2C(=O)N(c3cnc(C)c(C(C)(F)F)c3)CCc3c(F)cccc32)c(F)c1 [Example 33]", "quantity_kind": "Ki", "value": 0.631}

[1] Cc1ncc(C2CCc3c(F)cccc3N(Cc3c(F)cc(Br)cc3F)C2=O)cc1C(C)(F)F (single isomer, unassigned) [Example 36]
[2] CCCc1cc(F)c(CN2C(=O)N(c3cnc(C)c(C(C)(F)F)c3)CCc3c(F)cccc32)c(F)c1 [Example 34]
stdin: Kindly identify the item with the lower Ki figure among these two: 1 and 2 Pick one and reply with its label.
stdout: 1

[I] COc1ncc(N2CCc3c(F)cccc3N(Cc3ccc(Br)cc3F)C2=O)cc1C(C)(F)F [Example 10]
[II] COc1ncc(C2CCc3c(F)cccc3N(Cc3c(F)cc(Cl)cc3F)C2=O)cc1S(C)(=O)=O (single isomer, unassigned) [Example 22]
stdin: Lab log: flag the item ( I or II ) with the smaller Ki figure. Refer to your chosen item by its label in the answer.
stdout: II

[I] COc1ncc(C2CCc3c(F)cccc3N(Cc3c(F)cc(Br)cc3F)C2=O)cc1S(C)(=O)=O (single isomer, unassigned) [Example 20]
[II] [2H]C([2H])([2H])Oc1cc(F)c(CN2C(=O)N(c3cnc(OC)c(C(C)(F)F)c3)CCc3c(F)cccc32)c(F)c1 [Example 6]
stdin: Which has the higher Ki, I or II ? Please identify the chosen entry by its label.
stdout: I
(I: 200 nM, II: 0.398 nM)

* * *

As shown below, each of these molecules has a reported Kb value.
target_system: human OX2 receptor (Homo sapiens, UniProt O43614)
Sequence (O43614 1-444): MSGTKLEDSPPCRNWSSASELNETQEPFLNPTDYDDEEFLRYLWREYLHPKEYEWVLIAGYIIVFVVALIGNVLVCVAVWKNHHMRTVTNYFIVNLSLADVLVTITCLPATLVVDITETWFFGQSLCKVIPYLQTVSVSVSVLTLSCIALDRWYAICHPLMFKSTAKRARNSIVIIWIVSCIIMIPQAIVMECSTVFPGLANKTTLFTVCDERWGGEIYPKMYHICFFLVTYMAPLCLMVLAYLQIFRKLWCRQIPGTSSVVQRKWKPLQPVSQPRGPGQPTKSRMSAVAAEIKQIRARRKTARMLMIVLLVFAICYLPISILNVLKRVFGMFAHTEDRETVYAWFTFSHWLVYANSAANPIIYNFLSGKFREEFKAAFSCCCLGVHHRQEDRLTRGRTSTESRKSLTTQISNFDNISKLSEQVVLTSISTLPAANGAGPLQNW
test_method_notes: IPone accumulation assay, CHO cells expressing OX2 (antagonism of orexin A)
Type: cell-based
settings: CHO human OX2, orexin A EC80 challenge (40 nM), read-out: fpKb average OX2 (converted)

# count of solved cases: 5
{"molecule": "CSc1cc(N2CCc3c(F)cccc3N(Cc3c(F)cc(Br)cc3F)C2=O)ccc1C [Example 26]", "value": "> 794 nM"}
{"molecule": "COCc1cc(F)c(CN2C(=O)N(c3cc(C(C)(F)F)c(OC)nc3OC)CCc3c(F)cccc32)c(F)c1 [Example 24]", "value": "> 3160 nM"}
{"molecule": "Cc1cc(C)c(S(C)(=O)=O)cc1N1CCc2ccccc2N(Cc2c(F)cc(Br)cc2F)C1=O [Example 29]", "value": "398 nM"}
{"molecule": "Cc1ncc(C2CCc3c(F)cccc3N(Cc3c(F)cc(Br)cc3F)C2=O)cc1S(C)(=O)=O (single isomer, unassigned) [Example 39]", "value": "> 2510 nM"}
{"molecule": "Cc1cc(C)c(S(C)(=O)=O)cc1N1CCc2c(F)cccc2N(Cc2c(F)cc(Br)cc2F)C1=O [Example 31]", "value": "> 316 nM"}

stdin: Return Kb (reported value) for this molecule: COc1ccc(CN2C(=O)N(c3cnc(OC)c(C(C)(F)F)c3)CCc3c(F)cccc32)c(F)c1 [Example 4]
stdout: > 3980 nM

stdin: Check the records and state Kb for Cc1ncc(N2CCc3c(F)cccc3N(Cc3c(F)cc(Br)cc3F)C2=O)cc1OC(F)F [Example 37]
stdout: > 3980 nM

stdin: Provide Kb value for the following molecule: Cc1ncc(C2CCc3c(F)cccc3N(Cc3c(F)cc(Br)cc3F)C2=O)cc1C(C)(F)F (single isomer, unassigned) [Example 35]
stdout: > 2510 nM

Values compiled from patent US20210179578A1.
